pIC50: −log10 of the molar value.
A short record of pIC50 observed with Adenosine A2B Receptor (Homo sapiens, UniProt P29275) follows.
Sequence (P29275 whole entry): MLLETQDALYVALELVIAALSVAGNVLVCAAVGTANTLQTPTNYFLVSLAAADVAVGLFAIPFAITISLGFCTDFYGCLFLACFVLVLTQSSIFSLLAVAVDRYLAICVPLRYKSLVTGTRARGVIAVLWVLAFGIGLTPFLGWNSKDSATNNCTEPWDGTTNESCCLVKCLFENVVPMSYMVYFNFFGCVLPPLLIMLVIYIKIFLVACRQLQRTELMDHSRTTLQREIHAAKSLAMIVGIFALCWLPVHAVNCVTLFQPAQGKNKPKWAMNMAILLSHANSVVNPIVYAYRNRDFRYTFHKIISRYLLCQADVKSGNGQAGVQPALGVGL

Please review the following examples before continuing.
molecular_string=Cc1nc2nc(N[C@@H](C)c3cccnc3)nc(C(=O)NC[C@H](C)O)c2s1 observed_measurement="> 7.00"
molecular_string=CC(=O)NC[C@@H]1CCN(C(=O)c2nc(N[C@@H](C)c3cncc(F)c3)nc3nc(C)sc23)C1 observed_measurement="> 7.00"
molecular_string=Cc1nc2nc(N[C@@H](C)c3ccccn3)nc(C(=O)NC(C)C)c2s1 observed_measurement="> 7.00"

Query for Adenosine A2B Receptor (Homo sapiens, UniProt P29275): what pIC50 does the record show for `Cc1nc2nc(N[C@@H](C)c3ccccn3)nc(C(=O)N3CC(NC(=O)C(C)(C)C)C3)c2s1` ?
> 7.00

Record lookup: for Adenosine A2B Receptor (Homo sapiens, UniProt P29275), what pIC50 belongs to `Cc1nc2nc(N[C@@H](C)c3ccccn3)nc(C(=O)N3CC[C@@H](O)C3)c2s1` ?
> 7.00

Form field: pIC50 recorded for `Cc1nc2nc(N[C@@H](C)c3cncc(F)c3)nc(C(=O)N3CC(NC(=O)Nc4ccccc4)C3)c2s1` with Adenosine A2B Receptor (Homo sapiens, UniProt P29275) (enter value)
6.00 to 7.00
